test description: chemical genetic growth profiling, strain panel (AID 1159580);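 further: tested at 20 µM; growth read once vehicle control cultures reached saturation at 30 °C; 1 = growth at the plate median or of vehicle wells; lower values mean less growth of the strain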
measurement conditions: S. cerevisiae deletion strains, growth OD, locus YGL078C, strain dbp3, active compounds read low
The whole screen tested about 5,500 compounds, of which about 2,000 (36%) were called active. Inconclusive results (about 18%) are left out. Some of the results follow.
parameter: normalized growth
Give the figure by itself; no unit, no explanation.

Examples with answers:
{"compound": "CC(=O)O[C@@H]1CC(=O)[C@@]2(C)C(CC(=O)[C@]3(C)C2CC[C@@]2(C)[C@H](c4ccoc4)OC(=O)C4OC423)C1(C)C (some centres undefined)", "normalized growth": 1.01}
{"compound": "CC(C)(C)NCC(O)c1cc(Cl)c(N)c(Cl)c1 (centres undefined)", "normalized growth": 1.01}

Task: Using known records, supply normalized growth for "CCOCN(C(=O)CCl)c1c(C)cccc1CC"
Output: 0.979

Task: Kindly indicate its recorded normalized growth. Item: CC(CC(O)C1OC1(C)C)[C@@H]1CCC2(C)C3=CCC4C(C)(C)C(=O)CCC4(C)C3CC[C@@]12C (some centres undefined)
Output: 1.01

Task: Let me know recorded normalized growth for CC1(C)C(=O)C=C[C@@]2(C)C1CC(=O)[C@]1(C)C2CC[C@@]2(C)[C@H](c3ccoc3)OC(=O)[C@H]3O[C@]321 (some centres undefined) , thanks.
Output: 1.02

Task: Look up normalized growth of CC(C1OC(C)(C)C(O)C1O)[C@@H]1CC[C@]2(C)C3=CCC4C(C)(C)C(=O)CC[C@]4(C)C3CC[C@@]12C (some centres undefined) and report it.
Output: 1.03

Task: Specify reported normalized growth for the compound shown: "NC(=NCCC[C@H](N)C(=O)O)N[N+](=O)[O-]"
Output: 1

Task: Give a short answer stating reported normalized growth for NC(CSCSCC(N)C(=O)O)C(=O)O (centres undefined) .
Output: 1.01

Task: Please look at this compound and report its normalized growth: "CCCCCc1c2c(cc(O)c1C(=O)O)OC(=O)c1c(cc(OC)cc1C(=O)CCCC)O2"
Output: 0.977

---

test description: chemical genetic growth profiling, strain panel (AID 1159580)
measurement conditions: S. cerevisiae deletion strains, growth OD, locus YPR119W, strain clb2, active compounds read low
In all, about 5,500 compounds went through this assay and about 2,000 (36%) were called active. Another 18% or so got no clear call; they are omitted. The list shows a part of the results.
Quick reference: normalized growth of the listed items.
# output: bare number, no unit

Task: Find the measured normalized growth of CCC1OC(=O)[C@H](C)C(=O)[C@H](C)[C@@H](OC2O[C@H](C)C[C@H](N(C)C)[C@H]2O)[C@](C)(OC)C2(CCCn3cnc(-c4cccnc4)c3)C[C@@H](C)C(=O)[C@H](C)[C@H]3N(C2)C(=O)O[C@]13C (some centres undefined) and report it.
Output: 1

Task: Answer with reported normalized growth of Oc1ccc2c(c1)OCC1(O)Cc3cc(O)c(O)cc3C21 (centres undefined)
Output: 0.978

Task: Quick one: give measured normalized growth for CC(=O)Oc1ccc2c(c1OC(C)=O)OCC1(O)Cc3c(cc(OC(C)=O)c(OC(C)=O)c3OC(C)=O)C21 (centres undefined)
Output: 0.996

Task: Dear colleague, please send me the reported normalized growth for NC(=O)NCC(N)C(=O)O (centres undefined) when you can.
Output: 0.987

---

test description: chemical genetic growth profiling, strain panel (AID 1159580);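 further: tested at 20 µM; growth read once vehicle control cultures reached saturation at 30 °C; 1 = growth at the plate median or of vehicle wells; lower values mean less growth of the strain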
measurement conditions: S. cerevisiae deletion strains, growth OD, locus YKL068W
Among all 5,500 compounds or so, about 2,000 (36%) were called active. About 18% were inconclusive and are not listed. Rule as the data show it: active = normalized growth mostly below about 0.91 (no sharp cut-off); inconclusive = no clear call, values can overlap the other calls; inactive = mostly above about 0.92. The list shows a part of the results.
Returns: one label drawn from Y for active, N for inactive

Example results:
{"compound": "CN(C)c1nc(N)c(C(=O)N=C(N)N)nc1Cl", "classification": "N"}
{"compound": "Cc1ccccc1OCC(O)CO (configuration not stated)", "classification": "N"}
{"compound": "CCOCN(C(=O)CCl)c1c(C)cccc1CC", "classification": "N"}
{"compound": "NC(N)=NC(=O)c1nc(Cl)c(N)nc1N", "classification": "N"}
{"compound": "CCN(Cc1ccncc1)C(=O)C(CO)c1ccccc1 (configuration not stated)", "classification": "N"}
{"compound": "CO[C@@]1(NC(=O)C(C(=O)O)c2ccc(O)cc2)C(=O)N2C(C(=O)O)=C(CSc3nnnn3C)CO[C@@H]21 (some centres not stated)", "classification": "N"}
{"compound": "CCCCCCC(C)OC(=O)COc1ccc(Cl)cc1Cl (configuration not stated)", "classification": "N"}
{"compound": "CCC(c1ccc(O)cc1)C(CC)c1ccc(O)cc1 (configuration not stated)", "classification": "N"}
{"compound": "CC1=CC(=O)C2=C(C)CC[C@@H]3[C@H](OC(=O)[C@H]3C)[C@@H]12", "classification": "N"}
{"compound": "CCCCCCCCCCCC1=C(O)C(=O)C=C(O)C1=O", "classification": "Y"}

Task: Which result was noted for this compound in the test: "NC(N)=NC(=O)c1nc(Cl)c(N2CCCCCC2)nc1N"
Output: N

Task: Outcome? CCCC(C)(COC(N)=O)COC(=O)NC(C)C (configuration not stated)
Output: N

---

test description: chemical genetic growth profiling, strain panel (AID 1159580);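 further: tested at 20 µM; growth read once vehicle control cultures reached saturation at 30 °C; 1 = growth at the plate median or of vehicle wells; lower values mean less growth of the strain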
measurement conditions: S. cerevisiae deletion strains, growth OD, locus YHR129C, strain ARP1, active compounds read low
Screen size: about 5,500 compounds; about 2,000 (36%) were called active. Not shown: some 18% with an inconclusive outcome. The list shows a part of the results.
parameter: normalized growth
// return just the number, without any unit appended

Known results for molecules:
{"molecule": "CNC(C)C(O)c1ccccc1 (stereo not given)", "reported measurement": 1}
{"molecule": "CCCCC1C(=O)N(c2ccccc2)N(c2ccc(O)cc2)C1=O (stereo not given)", "reported measurement": 0.982}
{"molecule": "NC(=NCCC[C@H](N)C(=O)O)N[N+](=O)[O-]", "reported measurement": 1.01}
{"molecule": "CCOC(=O)c1c(C)cc(O)cc1O", "reported measurement": 0.924}
{"molecule": "COC(=O)c1c(C)cc(OC)cc1O", "reported measurement": 0.999}

Task: Look up and report measured normalized growth for this entry: "Cc1cc(OC(=O)c2c(C)cc(OC(=O)c3c(C)cc(O)cc3O)cc2O)cc(O)c1C(=O)O"
Output: 1.02

Task: Fill in reported normalized growth for this entry: "CCC(=O)c1c(O)cc(O)cc1O"
Output: 0.999

Task: Give the reported value of normalized growth for this record: "CCOC(=O)c1c(C)cc(OC)cc1O"
Output: 0.983

Task: Supply reported normalized growth belonging to this molecule: "C[C@@H]([C@H](O)c1ccccc1)N(C)C"
Output: 1.01

Task: // Input: NC(CSCSCC(N)C(=O)O)C(=O)O (stereo not given) . Output its normalized growth only.
Output: 0.995

---

test description: chemical genetic growth profiling, strain panel (AID 1159580);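 further: tested at 20 µM; growth read once vehicle control cultures reached saturation at 30 °C; 1 = growth at the plate median or of vehicle wells; lower values mean less growth of the strain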
measurement conditions: S. cerevisiae deletion strains, growth OD, locus YMR125W, strain sto1, active compounds read low
Hit rate of the full screen: of about 5,500 compounds, about 2,000 (36%) were called active. Roughly 18% stayed inconclusive and do not appear here. The list shows a part of the results.
parameter: normalized growth
The answer should be a number; do not append a unit.

Known normalized growth results, listed for orientation:
{"compound": "COc1ccc(-c2cc(=O)c3c(O)cc(O[C@@H]4O[C@H](CO[C@H]5O[C@H](C)[C@@H](O)[C@H](O)[C@@H]5O)[C@@H](O)[C@H](O)[C@H]4O)cc3o2)cc1O", "reported measurement": 1.03}
{"compound": "NC(=O)CN1CCCC1=O", "reported measurement": 0.996}

Task: Quote normalized growth reported for COC(=O)[C@]1(C)CCC[C@]2(C)c3ccc(C(C)C)cc3C(=O)CC12 (stereo partly drawn) please.
Output: 0.964

Task: Tell us which normalized growth value is on record for "COc1ccc(-c2oc3cc(O[C@H]4O[C@H](CO)[C@@H](O)[C@H](O)[C@H]4O)c(OC)c(O)c3c(=O)c2OC)cc1O"
Output: 0.995

Task: Supply measured normalized growth of "O=c1c(O)c(-c2ccc(O)c(O)c2)oc2cc(O)cc(O)c12" in your reply.
Output: 1.02

Task: // Input: C[C@@H]1O[C@@H](OC[C@H]2OC(Oc3c(-c4ccc(O)c(O)c4)oc4cc(O)cc(O)c4c3=O)[C@H](O)[C@@H](O)[C@@H]2O)[C@H](O)[C@H](O)[C@H]1O (stereo partly drawn) . Output its normalized growth only.
Output: 0.965

Task: Annotate the compound C=CC1C2=CCOC(=O)C2=COC1OC1OC(CO)C(O)C(O)C1O (stereo not drawn) with its measured normalized growth.
Output: 1.03

Task: Return normalized growth for the following compound: "CCCCCC(=O)Cc1cc(O)cc(O)c1C(=O)Oc1cc(CC(=O)CCCCC)c(C(=O)O)c(OC)c1"
Output: 0.909

Task: Entry "O=c1c(O)c(-c2ccc(O)c(O)c2)oc2c(O[C@@H]3O[C@H](CO)[C@H](O)[C@@H](O)[C@H]3O)c(O)cc(O)c12" needs its normalized growth filled in; supply it.
Output: 1

Origin of measurements: PubChem BioAssay AID1159580
